# MEASURED TARGET: T1, LILRA2
# T1 construct: also called LILRA2 reporter cells; not shown: transmembrane/intracellular domains of PILRb, the display part of the chimeric reporter receptor
# T1 sequence (chain, as listed by the source limits assumed): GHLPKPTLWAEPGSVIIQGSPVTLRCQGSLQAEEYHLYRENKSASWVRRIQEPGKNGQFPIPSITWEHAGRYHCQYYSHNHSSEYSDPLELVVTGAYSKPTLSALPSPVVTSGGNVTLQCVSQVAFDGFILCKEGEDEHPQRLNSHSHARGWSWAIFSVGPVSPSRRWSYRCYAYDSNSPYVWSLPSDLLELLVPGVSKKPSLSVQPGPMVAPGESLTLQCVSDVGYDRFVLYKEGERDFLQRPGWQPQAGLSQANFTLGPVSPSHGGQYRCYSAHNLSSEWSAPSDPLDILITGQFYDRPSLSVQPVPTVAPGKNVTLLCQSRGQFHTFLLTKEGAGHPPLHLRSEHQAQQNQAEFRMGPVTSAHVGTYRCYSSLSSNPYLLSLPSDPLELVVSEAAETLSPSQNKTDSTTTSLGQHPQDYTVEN
# MEASUREMENT DESCRIPTION: flow cytometry, reporter cells
# Procedure: FIG. 29. Binding of LILRB2 antibodies on reporter cell line expressing ectodomain of LILR family proteins on cell surface. Bound antibodies were detected with anti-human Fc-specific secondary antibody (2nd Ab) conjugated to AF647. […] All incubations were performed for 30 minutes at 4° C. Data shown is mean fluorescence intensity after sample acquisition in flow cytometer.
PROPERTY LABEL: MFI
Numbers only.

Use the examples below as a reference point.
B2-16 (antibody, V domains shown, also called B2-16_HC; B2-16_LC) VH: QVQLVQSGAEVKKPGSSVKVSCKASGGTFSSYAISWVRQAPGQGLEWMGGIIPIFGTANYAQKFQGRVTITADESTSTAYMELSSLRSEDTAVYYCASGIIPDNPYGMDVWGQGTMVSVSS VL: DIVMTQSPLSLPVTLGQPASISCTSSQSLVYSDGNTYLNWFHQRPGQSPRRLFYKVSNRASGVPDRFSGSGSGTDFTLKISRVEAEDLGVYYCMQGTHWPVTFGQGTRLEIK = 10
B2-7 (antibody, V domains shown, also called B2-7_HC; B2-7_LC) VH: EVQLVESGGGVVQPGRSLRLSCAASGFTISSYGMHWVRQAPGKGLEWVAVISYDGSNKYYADSVKGRFTISRDNSKNTLYLQMNSLRVEDTAVYYCAKDLLLRYFDWSPKYYYNGMDVWGQGTMVTVSS VL: QSVLTQPPSVSVAPGKTARITCGGNNIGSKSVHWYQQKPGQAPVLVVYDDSDRPSGIPERFSGSNSGNTATLTISRVEAGDEADYYCQVWDSSSDHPGVFGTGTKVTVL = 10

Read the next record carefully.
Item: B2-15 (antibody, V domains shown, also called B-15; B2-15_HC) VH: EVQLVQSGAEVKKSGASVKVSCKSSGYTFTNYGISWVRQAPGQGLEWMGWISGDAGDTKFAQKFQGRVTMTTDTSTTTTYMELRSLRSDDTAVYYCARDGEYIPMFRGFDNYYGLDVWGQGTLVSVSS VL: QSVLTQPPSASATPGQRVTISCSGRNANIGSNPVNWYQQLPGTAPRLVMYSNNQRPSGVPDRFSGSKSGTSASLAISGLQSEDEADYYCEGWDDSLNGYVFGTGTKVTVL | MFI: 10

The reported numbers originate from patent US20230068663A1.
